# System: P388 leukemia ip, CD2F1 mice, survival T/C
# test protocol: NCI In Vivo Anticancer Drug Screen. Data for tumor model P388 Leukemia (intraperitoneal) in CD2F1 (CDF1) mice
# measurement setup: endpoint: median survival time; dose: 200.0 mg/kg/injection; schedule: Q01DX005 (ip); vehicle: saline with Tween-80; higher = longer survival
Inconclusive results and toxic doses are left out.
result type: T/C

molecule="CCCC1OCC2OC(Nc3ccccc3)C(O)C(O)C2O1 (stereo unspecified)" result_type=T/C recorded_value="103 % of control"
molecule="O=C(CC(c1ccncc1)C(C(=O)c1ccc(Cl)cc1)C(c1ccncc1)C(C(=O)c1ccc(Cl)cc1)C(O)c1ccncc1)c1ccc(Cl)cc1 (stereo unspecified)" result_type=T/C recorded_value="93 % of control"
molecule=O=C(CCN1CCCCC1)Nc1ccc(F)c(Cl)c1 result_type=T/C recorded_value="93 % of control"
molecule=Cc1nc2ccccc2nc1NNc1ccccc1 result_type=T/C recorded_value="87 % of control"
molecule=Oc1ccc2ccccc2c1CN(Cc1c(O)ccc2ccccc12)C1CCCCC1 result_type=T/C recorded_value="104 % of control"
molecule="CN1N=Nc2ccccc2C1(O)c1ccc(F)cc1 (stereo unspecified)" result_type=T/C recorded_value="107 % of control"
molecule="O=C(CCN1C(=O)c2ccccc2C1=O)C(O)CCN1C(=O)c2ccccc2C1=O (stereo unspecified)" result_type=T/C recorded_value="87 % of control"
molecule="COc1ccc(C(C)(c2cc(C(C)(C)C)c(O)c(C(C)(C)C)c2)n2ccnc2)cc1 (stereo unspecified)" result_type=T/C recorded_value="91 % of control"
molecule=C=C(C)C(=O)OCCN(CC)CC result_type=T/C recorded_value="100 % of control"
molecule=O=c1c2[nH]c3ccccc3sc=2c(=O)n1-c1c(F)c(F)c(F)c(F)c1F result_type=T/C recorded_value="100 % of control"
molecule=Cc1cccnc1NCc1ccccn1 result_type=T/C recorded_value="93 % of control"
